# System: Plasmodium falciparum
# PROTOCOL: Antimalarial activity after 48 hrs against chloroquine-sensitive Plasmodium falciparum Nigerian by [3H]hypoxanthine uptake
# Assay type: functional, organism-based
EXPERIMENTAL_ENDPOINT: IC50 (nM)
# number only, unit nM dropped from output

MOLECULE | STUDY_SYSTEM | EXPERIMENTAL_ENDPOINT | ENDPOINT_UNIT | QUANTITATIVE_RESULT
CCNC(=O)O/N=C(/N)CCCCCCCCCCCCC(=N)NOC(=O)NCC | Plasmodium falciparum | IC50 | nM | 180
O=c1[nH]c(CCCCCCCCCCCCc2nsc(=O)[nH]2)ns1 | Plasmodium falciparum | IC50 | nM | 17.5
Cc1c(CCO)sc[n+]1CCCCCCCCCCCC[n+]1csc(CCO)c1C [ALBITIAZOLIUM BROMIDE] | Plasmodium falciparum | IC50 | nM | 2.2
N/C(CCCCCCCCCCCC/C(N)=N/O)=N\O | Plasmodium falciparum | IC50 | nM | 3500

# context switch: different molecule, same IC50
Assign IC50 to the following record: `N=C(CCCCCCCCCCCC/C(N)=N\OC(=O)c1ccccc1)NOC(=O)c1ccccc1`
1100
